src = PubChem BioAssay (NCI)

# System: NCI/ADR-RES ovarian
# assay overview: NCI-60 one-dose screen, 48 h
# recorded conditions: 10 µM unless noted
About 83,000 compounds went through this panel and 20% of them were active in at least one assay; those are over-represented in the sample as a whole. Activity calls are given as the source filed them. How the source made its calls: active means growth percent below 10; inactive means the rest.
Returns: one label drawn from active, inactive

Incoming: Can you look up the reported call for COC1CC(OC(=O)c2ccc([N+](=O)[O-])cc2)C(COC(=O)c2ccc([N+](=O)[O-])cc2)O1 (stereo not drawn) for me?
Outgoing: inactive

Incoming: Can you look up the reported call for `Cn1c(=O)c2nc3c(=O)n(C)c(=O)n(C)c3nc2n(C)c1=O` for me?
Outgoing: inactive

Incoming: Can you look up the reported call for `O=C(CCCl)OCCOc1ccccc1` for me?
Outgoing: inactive

Incoming: Can you look up the reported call for CC1CCC(C(C)(C)[N+](C)(C)C)CC1 (stereo not drawn) for me?
Outgoing: inactive

Incoming: Can you look up the reported call for `S=c1nc2[nH]c3ccccc3c2n[nH]1` for me?
Outgoing: inactive

Incoming: Can you look up the reported call for COC(c1ccc2c(c1)OCO2)C(C)Br (stereo not drawn) for me?
Outgoing: inactive

Incoming: Can you look up the reported call for `Nc1nc(N)nc(N2CCCCC2)n1` for me?
Outgoing: inactive

Incoming: Can you look up the reported call for `CC(=O)N=c1ccc2nc3c(cc(N)c4ccccc43)oc-2c1` for me?
Outgoing: active

Incoming: Can you look up the reported call for `CC1=CC(=Nc2ccc(N(C)C)cc2)C=C(C)C1=O` for me?
Outgoing: inactive

Incoming: Can you look up the reported call for `O=C(O)CC1=CCCCC1` for me?
Outgoing: inactive

Incoming: Can you look up the reported call for `Cc1cc(Nc2ccc3c(c2)OCO3)c2cc3c(cc2n1)OCO3` for me?
Outgoing: active

Incoming: Can you look up the reported call for CC(CC(CCC(=O)O)(c1ccccc1)c1ccccc1)N(C)C (stereo not drawn) for me?
Outgoing: inactive

Incoming: Can you look up the reported call for `CCCOCc1cn[nH]n1` for me?
Outgoing: inactive

* * *

# Test system: A549/ATCC NSCLC
# assay overview: NCI-60 one-dose screen, 48 h
# recorded conditions: 10 µM unless noted
This is part of a sample that, as a whole, favours compounds with a hit. Of some 83,000 tested, about 20% had one in any assay. Active and inactive are the calls of the source. The calls were made as follows: active = growth percent below 10; inactive = the rest.
Returns: one label drawn from yes (active), no (inactive)

Incoming: Can you look up the reported call for `Cc1cc(Cl)cc(Cc2cc(Cl)cc(C)c2O)c1O` for me?
Outgoing: no

Incoming: Can you look up the reported call for `c1ccc2c(NCCCN3CCN(CCCNc4c5ccccc5nc5ccccc45)CC3)c3ccccc3nc2c1` for me?
Outgoing: yes

Incoming: Can you look up the reported call for `CC(=O)Nc1ccc(O)c(C)c1` for me?
Outgoing: no

Incoming: Can you look up the reported call for `C#CCSc1nnnn1-c1ccccc1` for me?
Outgoing: no

Incoming: Can you look up the reported call for N=C(N)c1nn(C2OC(CO)C(O)C2O)c2nc[nH]c(=O)c12 (stereo unspecified) for me?
Outgoing: no

Incoming: Can you look up the reported call for `Nc1cc2ccccc2c(O)c1O` for me?
Outgoing: no

Incoming: Can you look up the reported call for `NC(=S)N/N=C/c1ccc(OC(=O)COc2ccc(Cl)cc2)cn1` for me?
Outgoing: no

Incoming: Can you look up the reported call for `C=C(C)COc1ccc(C(C)(C)C)cc1` for me?
Outgoing: no

Incoming: Can you look up the reported call for `S=c1nc2[nH]c3ccccc3c2n[nH]1` for me?
Outgoing: no

Incoming: Can you look up the reported call for `CCOC(=O)N[C@H]1CCc2cc(OC)c(OC)c(OC)c2-c2ccc(SC)c(=O)cc21` for me?
Outgoing: no

Incoming: Can you look up the reported call for `COc1ccc2c(Cl)cc(NC(=O)Nc3c(C)cccc3C)nc2c1` for me?
Outgoing: no

Incoming: Can you look up the reported call for `C=C1C(=O)C2CCN1CC2` for me?
Outgoing: no

Incoming: Can you look up the reported call for `CCCCCC#CC(=O)O` for me?
Outgoing: no

Incoming: Can you look up the reported call for `O=C(NCCc1ccccc1)/C(=C\c1ccc(Cl)cc1Cl)NC(=O)c1ccccc1` for me?
Outgoing: no

Incoming: Can you look up the reported call for `CC(=O)[C@@]1(O)CC[C@H]2[C@@H]3CC[C@@H]4CC(=O)CC[C@]4(C)[C@H]3[C@@H](O)C[C@@]21C` for me?
Outgoing: no

Incoming: Can you look up the reported call for `CCN(C(=O)Nc1ccccc1Cl)c1ccccc1` for me?
Outgoing: no

Incoming: Can you look up the reported call for `Nc1cc2c(cc1Cl)C(=O)c1ccccc1C2=O` for me?
Outgoing: no

Incoming: Can you look up the reported call for `CCCCc1ccc2nc(NC(=O)OC)[nH]c2c1` for me?
Outgoing: no

Incoming: Can you look up the reported call for `Cc1ccc(C2CCCCC2)cc1Br` for me?
Outgoing: no

Incoming: Can you look up the reported call for CN=S(=O)(OCCCCCOS(=O)(=NC)c1ccc(C)cc1)c1ccc(C)cc1 (stereo unspecified) for me?
Outgoing: no

Incoming: Can you look up the reported call for `CCc1ccccc1C(=O)N(CC)CC` for me?
Outgoing: no

Incoming: Can you look up the reported call for CCN1CCCC(N2c3ccccc3Sc3ccccc32)C1 (stereo unspecified) for me?
Outgoing: no

Incoming: Can you look up the reported call for `CCOC(=O)C1(N)CCCCC1` for me?
Outgoing: no

Incoming: Can you look up the reported call for `COc1cccc(N=CNc2cccc(OC)c2)c1` for me?
Outgoing: no

Incoming: Can you look up the reported call for `CCNCC(C)(C)O` for me?
Outgoing: no

Incoming: Can you look up the reported call for `Cc1[nH]c(=S)[nH]c(=O)c1C` for me?
Outgoing: no

Incoming: Can you look up the reported call for `Nc1cc(N)ncn1` for me?
Outgoing: no

Incoming: Can you look up the reported call for `CCCCCCCCCCCCCCCCOc1ccccc1NC(=O)CC(C)=O` for me?
Outgoing: no

Incoming: Can you look up the reported call for `CCOC(C=O)OCC` for me?
Outgoing: no

Incoming: Can you look up the reported call for `S=C(Sc1ccc(Cl)cc1)Sc1ccc(Cl)cc1` for me?
Outgoing: no

Incoming: Can you look up the reported call for CC1CN(CCO)CC(C)O1 (stereo unspecified) for me?
Outgoing: no

Incoming: Can you look up the reported call for CC(=O)NC(O)C(Cl)Cl (stereo unspecified) for me?
Outgoing: no

Incoming: Can you look up the reported call for `CCCCCCCCCCCCSC1=C(Cl)C(=O)C(OC)=C(OC)C1=O` for me?
Outgoing: no

Incoming: Can you look up the reported call for `Cc1cc(Cc2ccccc2)c(O)c(Cc2ccccc2)c1` for me?
Outgoing: no

Incoming: Can you look up the reported call for `Cn1c2ccccc2c2nnc(NCCCCO)nc21` for me?
Outgoing: no

Incoming: Can you look up the reported call for `CCOC(=O)CO` for me?
Outgoing: no

Incoming: Can you look up the reported call for `CC(C)N(C(=O)c1ccccc1)C(C)C` for me?
Outgoing: no

Incoming: Can you look up the reported call for `COc1ccc(Br)c(C=O)c1` for me?
Outgoing: no

Incoming: Can you look up the reported call for `O=S(=O)(O)C(C(I)I)S(=O)(=O)O` for me?
Outgoing: no

Incoming: Can you look up the reported call for `OCc1cccnc1` for me?
Outgoing: no

Incoming: Can you look up the reported call for `CCOC(=O)C(COS(C)(=O)=O)(COS(C)(=O)=O)C(=O)OCC` for me?
Outgoing: no

Incoming: Can you look up the reported call for `COC(=O)c1cccc([N+](=O)[O-])c1` for me?
Outgoing: no

Incoming: Can you look up the reported call for CC(c1ccccc1)N1C(=O)CSC1=S (stereo unspecified) for me?
Outgoing: no

Incoming: Can you look up the reported call for `O=c1nc(Nc2cccc(Cl)c2)oc2cc(Cl)oc(=O)c12` for me?
Outgoing: no

Incoming: Can you look up the reported call for `NCCCN1CCCC1=O` for me?
Outgoing: no

Incoming: Can you look up the reported call for COc1cc(OC)c(NC(=O)C(Sc2nc(C)cc(C)c2C#N)c2ccccc2)cc1Cl (stereo unspecified) for me?
Outgoing: no

Incoming: Can you look up the reported call for Nc1ncnc2c1ncn2C1OC(CO)C2OC21 (stereo unspecified) for me?
Outgoing: no

Incoming: Can you look up the reported call for `CCOC(=O)C(=O)CC(=O)c1ccccc1` for me?
Outgoing: no

Incoming: Can you look up the reported call for `Cc1ccc(C(C)C)c(OCC(=O)O)c1` for me?
Outgoing: no

Incoming: Can you look up the reported call for `CCOP(=O)(NC(c1ccccc1)c1ccccc1)OCC` for me?
Outgoing: no

Incoming: Can you look up the reported call for `C=C(OC(C)=O)c1ccccc1` for me?
Outgoing: no

Incoming: Can you look up the reported call for `Cc1ccc(C)c(CCO)c1` for me?
Outgoing: no

Incoming: Can you look up the reported call for `COc1c(CNC(=O)CCl)cc2[nH]c(C)cc2c1CNC(=O)CCl` for me?
Outgoing: no

Incoming: Can you look up the reported call for `O=C1C=Cc2ccccc2/C1=C/c1[nH]c(=O)[nH]c1O` for me?
Outgoing: no

Incoming: Can you look up the reported call for `Cc1cc(=O)n(Nc2ccccc2)c(O)c1C#N` for me?
Outgoing: no

Incoming: Can you look up the reported call for `Cc1nc(C)c(C(=O)O)cc1C(=O)O` for me?
Outgoing: no
